# Test system: MRSA 97-115
# procedure_text: Antibacterial activity test (MIC)
# Type: cell-based, methicillin-resistant Staphylococcus aureus
# stated_conditions: Mueller-Hinton Broth, 37° C., 20 to 24 hours
# Description: Regarding compounds obtained in respective Working Examples, in order to investigate antibacterial activity, minimal inhibitory concentration (MIC) was determined according to a standard method of Japanese Society of Chemotherapy. As a test bacterium, nine kinds of S. aureus 209PJC, MRSA 97-115, MRSA KM 97-53, MRSA KM97-108, VRE 49, E. coli NIHJ JC-2, P. aeruginosa PAO-1, P. aeruginosa No. 12, P. aeruginosa KM97-5 were used and, as a medium, Mueller-Hinton Broth (DIFCO) was used. […]
measured_property: minimal inhibitory concentration (MIC) (µg/mL)
Return type: number; implicit unit µg/mL.

Answered examples (4):
compound=CC(=O)O.CCCCCCCNC1=NC(C)(C)N=C(NCCCCCCC)N1 study_system="MRSA 97-115" measured_property="minimal inhibitory concentration (MIC)" reported_value=0.8
compound=CC(=O)O.CCCCCCCCCCNC1=NC(C)(C)N=C(NCc2ccccc2)N1 study_system="MRSA 97-115" measured_property="minimal inhibitory concentration (MIC)" reported_value=0.4
compound="CCCCCCCCCC1N=C(N)N=C(N)N1c1ccc(F)c(F)c1F.Cl (centres unmarked)" study_system="MRSA 97-115" measured_property="minimal inhibitory concentration (MIC)" reported_value=3.1
compound=CC(=O)O.CCCCCCCNC1=NC(C)(C)N=C(NCCCCCC)N1 study_system="MRSA 97-115" measured_property="minimal inhibitory concentration (MIC)" reported_value=1.6

Okay, now this compound:
Dear colleague, I am looking for the recorded minimal inhibitory concentration (MIC) of the following compound: CCCCCCCCC1N=C(N)N=C(N)N1c1ccc(C(C)(C)C)cc1.Cl (centres unmarked)
3.1
